- test-target: Pim-1 stably transfected into the U2OS human osteogenic sarcoma line (Homo sapiens)
- Construct: expressed in transfected cells; host or cells: U2OS human osteogenic sarcoma line
- Sequence (P11309 whole entry): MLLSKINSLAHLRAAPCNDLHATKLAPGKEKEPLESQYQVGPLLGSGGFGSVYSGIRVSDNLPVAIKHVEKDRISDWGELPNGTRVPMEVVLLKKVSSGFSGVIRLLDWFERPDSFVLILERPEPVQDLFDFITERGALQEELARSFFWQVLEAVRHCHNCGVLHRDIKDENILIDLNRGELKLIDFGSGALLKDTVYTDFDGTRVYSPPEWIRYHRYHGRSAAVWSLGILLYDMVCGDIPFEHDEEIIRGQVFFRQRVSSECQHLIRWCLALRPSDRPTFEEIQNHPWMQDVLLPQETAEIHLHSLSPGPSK
- measurement-notes: Pim cell assay, phospho-BAD normalized against total BAD, U2OS stably transfected with Pim-1
- Type: cell-based
- condition-label: U2OS cells stably transfected with Pim-1, phospho-BAD; high dose […]; read-out: Pim1_Cell_IC50
Reported IC50 by item:
Numbers only here, please. The scale is nM.

Recorded IC50, per entry:
molecule: Nc1cccc(-c2ccc3[nH]nc(-c4cncc(N5CCC(N)CC5)n4)c3c2)c1
test-target: Pim-1 stably transfected into the U2OS human osteogenic sarcoma line (Homo sapiens)
units: nM
IC50: 395
--
molecule: CC(C)NC(=O)c1ccc(F)c(-c2ccc3[nH]nc(-c4cncc(O[C@@H]5CCCNC5)n4)c3c2)c1
test-target: Pim-1 stably transfected into the U2OS human osteogenic sarcoma line (Homo sapiens)
units: nM
IC50: 287
--
molecule: NC1CCN(c2cncc(-c3n[nH]c4ccc(-c5ccccc5Cl)cc34)n2)CC1
test-target: Pim-1 stably transfected into the U2OS human osteogenic sarcoma line (Homo sapiens)
units: nM
IC50: 1420
--
molecule: NC1CCN(c2cncc(-c3n[nH]c4ccc(-c5cc([N+](=O)[O-])ccc5F)cc34)n2)CC1
test-target: Pim-1 stably transfected into the U2OS human osteogenic sarcoma line (Homo sapiens)
units: nM
IC50: 253
--
molecule: NC1CCN(c2cncc(-c3n[nH]c4ccc(-c5cc(C(=O)Nc6ccccc6)ccc5F)cc34)n2)CC1
test-target: Pim-1 stably transfected into the U2OS human osteogenic sarcoma line (Homo sapiens)
units: nM
IC50: 1560

Request: Give its IC50 value. Item: `CN1C(=O)Cc2cc(-c3ccc4[nH]nc(-c5cncc(N6CCC(N)CC6)n5)c4c3)ccc21`
Response: 1460

Request: Give its IC50 value. Item: `COc1nc2ccccc2cc1-c1ccc2[nH]nc(-c3cncc(N4CCC(N)CC4)n3)c2c1`
Response: 2630

Request: Give its IC50 value. Item: CN(c1cncc(-c2n[nH]c3ccc(-c4c(F)cccc4F)cc23)n1)C1CCCNC1 (centres unmarked)
Response: 582
